biological target: Glutamate receptor ionotropic kainate 1 (Homo sapiens) (UniProt P39086); test: Antagonist activity at human recombinant GluR5 expressed in HEK cells coexpressing aequorine assessed as inhibition of glutamate-induced Ca2+ influx at 10 uM by luminescence reporter assay relative to control; conditions: HEK293
Sequence (P39086 whole entry, looked up): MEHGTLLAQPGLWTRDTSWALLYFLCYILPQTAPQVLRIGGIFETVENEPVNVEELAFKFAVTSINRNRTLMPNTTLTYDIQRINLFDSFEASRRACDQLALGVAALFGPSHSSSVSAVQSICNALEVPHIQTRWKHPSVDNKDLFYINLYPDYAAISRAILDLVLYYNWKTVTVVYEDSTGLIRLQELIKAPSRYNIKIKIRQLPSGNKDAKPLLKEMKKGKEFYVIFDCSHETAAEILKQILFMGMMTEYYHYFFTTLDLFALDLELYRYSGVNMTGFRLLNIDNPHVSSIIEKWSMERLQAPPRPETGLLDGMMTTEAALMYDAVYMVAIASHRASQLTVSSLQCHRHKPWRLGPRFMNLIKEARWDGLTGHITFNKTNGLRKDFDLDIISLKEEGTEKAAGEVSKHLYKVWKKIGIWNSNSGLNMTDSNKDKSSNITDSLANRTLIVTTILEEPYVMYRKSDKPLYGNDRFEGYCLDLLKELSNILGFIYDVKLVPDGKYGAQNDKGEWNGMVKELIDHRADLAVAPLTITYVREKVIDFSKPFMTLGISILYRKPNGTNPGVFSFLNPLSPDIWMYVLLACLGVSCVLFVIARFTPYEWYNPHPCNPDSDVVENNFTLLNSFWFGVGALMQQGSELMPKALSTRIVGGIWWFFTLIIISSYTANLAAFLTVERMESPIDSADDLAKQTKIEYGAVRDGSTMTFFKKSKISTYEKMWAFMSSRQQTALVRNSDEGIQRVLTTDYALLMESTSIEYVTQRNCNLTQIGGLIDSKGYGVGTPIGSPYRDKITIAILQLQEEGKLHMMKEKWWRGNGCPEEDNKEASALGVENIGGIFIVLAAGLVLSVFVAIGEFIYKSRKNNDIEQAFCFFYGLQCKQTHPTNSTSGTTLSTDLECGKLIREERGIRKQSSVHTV
Listing of recorded inhibition by entry.

# MOLECULE SMILES, UNIT SYMBOL, inhibition
data = [
    ("CCOC(=O)Nc1sc(-c2ccccc2)c(C)c1C(N)=O", "%", 19),
    ("Cc1c(-c2ccccc2)sc(N)c1C(=O)OC(C)(C)C", "%", 4),
    ("CCOC(=O)c1c(N)sc(-c2ccc(OC)cc2)c1C", "%", 1),
    ("CCOC(=O)c1c(NC(=O)c2ccccc2)sc(-c2ccccc2)c1C", "%", -3),
    ("CCNC(=O)Nc1sc(-c2ccccc2)c(C)c1C(=O)OCC", "%", 0.5),
    ("CCNC(=O)Nc1sc(-c2ccccc2)c(C)c1C(N)=O", "%", 5.8),
    ("CCOC(=O)C(=O)Nc1sc(-c2ccccc2)c(C)c1C(=O)OCC", "%", 4),
    ("Cc1c(-c2ccccc2)sc2[nH]c(=S)[nH]c(=O)c12", "%", 10),
    ("CCOC(=O)c1c(N)sc(-c2ccccc2)c1-c1ccccc1", "%", 13),
    ("Cc1c(-c2ccccc2)sc(N)c1C(=O)c1ccccc1", "%", 17),
    ("CCn1c(=O)[nH]c2sc3c(c2c1=O)CCCC3", "%", 6),
    ("CCOC(=O)c1c(NC(=O)CN2CCOCC2)sc(-c2ccccc2)c1C", "%", 14),
    ("CCOC(=O)c1c(Cl)sc(-c2ccccc2)c1C", "%", 0),
    ("CCOC(=O)c1c(N)sc(-c2ccccc2)c1C", "%", 12),
    ("CCNC(=O)c1c(N)sc(-c2ccccc2)c1C", "%", 9),
    ("CCOC(=O)c1c(N=C=S)sc(-c2ccccc2)c1C", "%", 0),
    ("CCOC(=O)c1c(NC(=O)C(F)(F)F)sc(-c2ccccc2)c1C", "%", 18),
    ("CCOC(=O)c1c(N=NN(C)C)sc(-c2ccccc2)c1C", "%", 10),
    ("CCOC(=O)c1c(N)sc2c1CCCC2", "%", 7),
    ("CCOC(=O)Nc1sc2c(c1C(N)=O)CCCC2", "%", 14),
    ("CCSc1nc2sc3c(c2c(=O)[nH]1)CCCC3", "%", 8),
    ("CCOC(=O)c1c(NC(=O)CNCc2ccccc2)sc(-c2ccccc2)c1C", "%", 25),
    ("Cc1c(-c2ccccc2)sc(N)c1C#N", "%", 17),
    ("CCOC(=O)c1c(N)sc(-c2ccccc2Cl)c1C", "%", 10),
    ("CCOC(=O)c1c(NC)sc(-c2ccccc2)c1C", "%", 4.5),
    ("CCOC(=O)Nc1cc(C)c(-c2ccccc2)s1", "%", 1),
    ("CCn1c(=O)[nH]c2sc(-c3ccccc3)c(C)c2c1=O", "%", 11.8),
    ("CCOC(=O)c1c(-n2cccc2)sc(-c2ccccc2)c1C", "%", -1),
    ("CCSc1nc2sc(-c3ccccc3)c(C)c2c(=O)[nH]1", "%", 1),
    ("CCNC(=S)Nc1sc(-c2ccccc2)c(C)c1C(=O)OCC", "%", 7),
    ("CCCOC(=O)c1c(N)sc(-c2ccccc2)c1C", "%", 5),
    ("CCOC(=O)c1c(N)sc(-c2ccc(F)cc2)c1C", "%", 0),
    ("CCNC(=O)Nc1sc2c(c1C(N)=O)CCCC2", "%", 0.1),
    ("CCOC(=O)c1c(N=NN2CCOCC2)sc(-c2ccccc2)c1C", "%", 4),
    ("Oc1nc(S)nc2sc3c(c12)CCCC3", "%", 17),
    ("CCOC(=O)c1c(N=NC#N)sc(-c2ccccc2)c1C", "%", 7),
    ("CCOC(=O)Nc1sc(-c2ccccc2)c(C)c1C(=O)O", "%", 12),
    ("NC(=O)c1c(N)sc2c1CCCC2", "%", 4),
    ("CCOC(=O)c1c(NC(C)=O)sc(-c2ccccc2)c1C", "%", 3),
]

Where these numbers come from: ChEMBL document CHEMBL1154608
